Data provenance: patent US8598374B2

Hi there, I'd appreciate the recorded % Activity (Ex. 25 Reference Compound) for every entry that follows.
Target: human GPR120 (Homo sapiens)
Construct: Flag (DYKDDDDK) (N); host or cells: HEK293 cells co-expressing Gqi5
Sequence (Q5NUL3 whole entry): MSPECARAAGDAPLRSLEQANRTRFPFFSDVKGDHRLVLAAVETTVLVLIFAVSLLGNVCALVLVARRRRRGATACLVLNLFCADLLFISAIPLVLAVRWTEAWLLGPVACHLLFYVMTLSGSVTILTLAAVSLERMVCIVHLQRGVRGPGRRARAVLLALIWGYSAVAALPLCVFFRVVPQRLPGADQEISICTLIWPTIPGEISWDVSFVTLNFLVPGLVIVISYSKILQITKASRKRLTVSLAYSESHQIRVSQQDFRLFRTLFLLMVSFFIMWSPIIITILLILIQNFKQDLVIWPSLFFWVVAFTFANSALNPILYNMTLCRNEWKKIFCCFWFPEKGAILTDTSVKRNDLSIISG
Experiment: Intracellular Ca2+ assay (FLIPR Calcium 4, Flexstation) in human GPR120 stable cell line
Format: cell-based
Settings: % activity at 2.5 μM compared to the maximal activity of the compound of Example 25 at 2.5 μM; HEK293 cells co-expressing Gqi5
One number for each entry, in %.

- COMPOUND: "Cc1cc2cccc(COc3c(F)cc(CC(C)C(=O)O)cc3F)c2s1 (centres unmarked)"
  % Activity (Ex. 25 Reference Compound) [%]: 117.38
- COMPOUND: "CC(C)Oc1cc(OCc2cc(Cl)cc3c2OC(C)(C)C3)ccc1CCC(=O)O"
  % Activity (Ex. 25 Reference Compound) [%]: 145.6
- COMPOUND: "Cc1c(CCC(=O)O)ccc(OCc2cc(Cl)cc3c2OC(C)(C)C3)c1C"
  % Activity (Ex. 25 Reference Compound) [%]: 142.22

Working through the 8 compounds below one at a time, give % Activity (Ex. 25 Reference Compound) for each.
1. CC1(C)Cc2cc(F)cc(COc3c(F)cc(CC4CC4C(=O)O)cc3F)c2O1 (single isomer, unassigned) [Example 184B]
2. CCc1cc(OCc2cc(F)cc3c2OC(C)(C)C3)ccc1CCC(=O)O
3. CC(Cc1ccc(OCc2cc(F)cc3c2OC2(CCCC2)C3)cc1)C(=O)O (centres unmarked)
4. COc1cc(CCC(=O)O)ccc1OCc1cc(F)cc2c1OC(C)(C)C2
5. CC(CCc1ccc(OCc2cc(F)cc3c2OC(C)(C)C3)cc1)C(=O)O (centres unmarked)
6. CC1(C)Cc2cc(F)cc(COc3ccc(C4CC4C(=O)O)cc3)c2O1 (single isomer, unassigned) [Example 131A]
7. CC(Cc1ccc(OCc2cc(Cl)cc3c2OC(C)(C)C3=O)c(F)c1)C(=O)O (centres unmarked)
8. CN(C)Cc1cc(OCc2cc(F)cc3c2OC(C)(C)C3)ccc1CCC(=O)O

**A:**
[130.66, 151.44, 154.48, 159.06, 98.97, 103.75, 109.62, 3.58]
